Assay: AUC (0 to t) in male Sprague-Dawley rat at 2 mg/kg, iv measured upto 36 hrs by LC-MS/MS analysis
Format: ADME, organism-based
Details: in vivo
MEASUREMENT_TYPE: AUC(0-t) at 36 h (µg·h/mL)
Entry rule: numbers only, all in µg·h/mL.

So for C#Cc1nc(C(=O)N(c2ccc(-c3cnco3)cc2)[C@@H](C(=O)NC(C)(C)C)c2csc3ccccc23)cs1 , the logged AUC(0-t) at 36 h turned out to be 0.122

* * *

Assay: AUC (0 to t) in male Sprague-Dawley rat at 20 mg/kg, po measured upto 36 hrs by LC-MS/MS analysis
Assay type: ADME, organism-based
Conditions: in vivo
MEASUREMENT_TYPE: AUC(0-t) at 36 h (ng·h/mL)
Answer with a number only, understood to be in ng·h/mL.

C#Cc1nc(C(=O)N(c2ccc(-c3cnco3)cc2)[C@@H](C(=O)NC(C)(C)C)c2csc3ccccc23)cs1 yielded AUC(0-t) at 36 h of 79.4

* * *

Experiment: Selectivity index, ratio of IC50 for cytotoxicity against human HT-1080 cells assessed as cell viability incubated for 24 hrs by CCK-8 assay to IC50 for induction of ferroptosis in human HT-1080 cells assessed as reduction in cell viability incubated for 24 hrs […] by CCK-8 assay
Format: functional
MEASUREMENT_TYPE: Ratio IC50
Lab note: jot the number down without any unit.

C#CC(=O)N(c1ccc(-c2cnco2)cc1)C(C(=O)NCCc1ccccc1)c1csc2ccccc12 (stereo unspecified); 11
C#Cc1nc(C(=O)N(c2ccc(-n3cncn3)cc2)C(C(=O)NC(C)(C)C)c2csc3ccccc23)cs1 (stereo unspecified); 12
C#Cc1nc(C(=O)N(c2ccc(-c3cnco3)cc2)C(C(=O)NC(C)(C)C)C2CCCCC2)cs1 (stereo unspecified); 23
C#Cc1nc(C(=O)N(c2ccc(-c3cnco3)cc2)C(C(=O)NCCc2ccccc2)c2csc3ccccc23)cs1 (stereo unspecified); 430
C#Cc1nc(C(=O)N(c2ccc(-c3cnco3)cc2)C(C(=O)NC(C)(C)C)C2=CCCOC2)cs1 (stereo unspecified); 15
C#Cc1nc(C(=O)N(c2ccc(-c3cnco3)cc2)C(C(=O)NC(C)(C)C)c2ccncn2)cs1 (stereo unspecified); 23

Documented Ratio IC50 of C#Cc1nc(C(=O)N(c2ccc(-c3cnco3)cc2)C(C(=O)NC(C)(C)C)c2ccsc2)cs1 (stereo unspecified) : 30.6

Summary for this compound, C=CC(=O)N(c1ccc(-c2cnco2)cc1)C(C(=O)NCCc1ccccc1)c1csc2ccccc12 (stereo unspecified) : Ratio IC50 is 58

According to the records, this compound O=C(NCCc1ccccc1)C(c1csc2ccccc12)N(C(=O)CCl)c1ccc(-c2cnco2)cc1 (stereo unspecified) displays Ratio IC50 of 38

Ratio IC50 reading for C#Cc1nc(C(=O)N(c2ccc(-c3cnco3)cc2)C(C(=O)NC(C)(C)C)c2c[nH]cn2)cs1 (stereo unspecified) : 13

Item: C#Cc1nc(C(=O)N(c2ccc(-n3cccn3)cc2)C(C(=O)NC(C)(C)C)c2csc3ccccc23)cs1 (stereo unspecified) | Ratio IC50: 29

* * *

Experiment: Cmax in male Sprague-Dawley rat at 2 mg/kg, iv measured upto 36 hrs by LC-MS/MS analysis
Type: ADME, organism-based
Details: in vivo
MEASUREMENT_TYPE: Cmax (ng/mL)
Answer format: numeric, ng/mL implied, no suffix.

Form field Cmax, entry C#Cc1nc(C(=O)N(c2ccc(-c3cnco3)cc2)[C@@H](C(=O)NC(C)(C)C)c2csc3ccccc23)cs1 : 271
